experimental-protocol: In vitro cytotoxicity test (MTT)
Assay type: cell-based
condition: human, A549, 48 h
endpoint-label: CC50 at 48 h (µg/mL)
# unit: µg/mL | format: bare number

Query string: Returns the measured CC50 at 48 h for the input compound. Input: O=C1Nc2ccc(Cl)cc2[C@@](C#CC2CC2)(C(F)(F)F)O1
Result string: 126

----------
experimental-protocol: In vitro cytotoxicity test (MTT)
Type: cell-based
condition: African green monkey, Vero
endpoint-label: CC50 at 48 h (mg/L)
# unit: mg/L | format: bare number

Query string: Returns the measured CC50 at 48 h for the input molecule. Input: O=C1Nc2ccc(Cl)cc2[C@@](C#CC2CC2)(C(F)(F)F)O1
Result string: 56.8
